The measured values listed here are drawn from the supplement of paper PMC10126150.

In this section we review reported switch fluorescence ratio values for a set of sequences.
# Test system: ATP;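 also: ATP exposure 15 min at 22 °C before imaging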
# Assay method text: switch fluorescence ratio, 500 uM ATP over buffer (Cy3 cluster intensity, sum of 5 cycles each) (fold (ratio)); higher = stronger signal-on switching upon ATP binding; sequences stand for … in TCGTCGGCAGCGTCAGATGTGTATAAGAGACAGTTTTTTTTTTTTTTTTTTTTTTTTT…TC
# Run parameters: aptamer strand: ATP DNA aptamer (quencher-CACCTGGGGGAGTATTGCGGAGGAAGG + anchor), 100 nM annealed; ATP concentration: 500 uM
Give the figure only, with no unit attached.

Below, 6 sequences whose answers are already recorded.
1. GATTTCACTC; 1
2. GGGATTGATC; 1.02
3. ACCGCTTTTT; 1.11
4. GGGGAATTCG; 1.02
5. GGAATGGAAC; 1.01
6. AGGTTAGATG; 0.991

Query sequence follows.
The recorded switch fluorescence ratio for TTCCGGGTAC is 3.27

----------
# System: ATP;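 also: ATP exposure 15 min at 22 °C before imaging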
# Assay method text: switch fluorescence ratio, 500 uM ATP over buffer (Cy3 cluster intensity, sum of 5 cycles each) (fold (ratio)); higher = stronger signal-on switching upon ATP binding; sequences stand for … in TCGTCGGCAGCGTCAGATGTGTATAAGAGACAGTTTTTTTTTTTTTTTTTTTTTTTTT…TC
# Run parameters: aptamer strand: ATP DNA aptamer (quencher-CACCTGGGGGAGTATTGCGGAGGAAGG + anchor), 100 nM annealed; ATP concentration: 500 uM
Recorded metric: switch fluorescence ratio
Give the figure only, with no unit attached.

Below, 6 sequences whose answers are already recorded.
1) GGGGTTTGTG; 0.997
2) CGGGGGGGTA; 1
3) GAACATGGGC; 1.01
4) CGTAGGGGTG; 0.969
5) TTTTTTTGGT; 0.996
6) GGCACGCGAG; 1.03

The recorded switch fluorescence ratio for CGGTTGGTAT is 0.969

The recorded switch fluorescence ratio for AGATGAGATA is 1

The recorded switch fluorescence ratio for GGTTTCCGCC is 1.17

The recorded switch fluorescence ratio for TAACGAAGGA is 1.03

The recorded switch fluorescence ratio for TAGCGCTTTA is 1.01

The recorded switch fluorescence ratio for TTTTGGTTG is 0.947

The recorded switch fluorescence ratio for TTTTAGTTTA is 1.01

The recorded switch fluorescence ratio for GTTAGAGGGA is 0.996

The recorded switch fluorescence ratio for CAGAGGATGC is 0.995

The recorded switch fluorescence ratio for TTTTCAATGT is 1.04

The recorded switch fluorescence ratio for GGAGAGGGCA is 1.02

The recorded switch fluorescence ratio for CGAGCAGTTA is 1.19

The recorded switch fluorescence ratio for ATGTGGGTTG is 1.03

The recorded switch fluorescence ratio for CTGTCAAGTA is 0.972

The recorded switch fluorescence ratio for CGTATTTCTG is 0.938

The recorded switch fluorescence ratio for GTTGGAGTGT is 0.951

The recorded switch fluorescence ratio for TGGGGGAGCT is 1.05

----------
In this section we review reported switch fluorescence ratio values for a set of sequences.
# System: ATP;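 also: ATP exposure 15 min at 22 °C before imaging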
# Assay method text: switch fluorescence ratio, 500 uM ATP over buffer (Cy3 cluster intensity, sum of 5 cycles each) (fold (ratio)); higher = stronger signal-on switching upon ATP binding; sequences stand for … in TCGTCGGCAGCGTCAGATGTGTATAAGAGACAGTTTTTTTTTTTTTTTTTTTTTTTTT…TC
# Run parameters: aptamer strand: ATP DNA aptamer (quencher-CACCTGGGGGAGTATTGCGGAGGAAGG + anchor), 100 nM annealed; ATP concentration: 500 uM
Give the figure only, with no unit attached.

1. TGGAAATGCC; 1.07
2. AAAGGTCCGC; 1.18
3. AAAATACGGG; 1.21
4. GTATGATTCG; 0.984
5. TCAACGATAT; 1.07
6. GTATGTTGGG; 1.08
7. TGGGTTGGTA; 1.02
8. TTGTTTGGGG; 0.998
9. GTCTGGGGTG; 1.04
10. TTTATGGTTC; 0.992

The recorded switch fluorescence ratio for GGGGTTACTG is 0.993

The recorded switch fluorescence ratio for TGGGTTGAGT is 0.987

The recorded switch fluorescence ratio for CGGAATGGTA is 1.08

The recorded switch fluorescence ratio for CTGCTAAGTA is 1.01
